tested on: HeLa Kyoto; experiment: solubility change mitosis vs G1/S (difference of NP-40 vs SDS log2 ratios) (log2 ratio difference); higher = more soluble in mitosis
value type: solubility change mitosis (log2)

{"columns": ["sequence entry", "recorded measurement"],
 "data": [
  ["MSSEMLPAFIETSNVDKKQGINEDQEESQKPRLGEGCEPISKRQMKKLIKQKQWEEQRELRKQKRKEKRKRKKLERQCQMEPNSDGHDRKRVRRDVVHSTLRLIIDCSFDHLMVLKDIKKLHKQIQRCYAENRRALHPVQFYLTSHGGQLKKNMDENDKGWVNWKDIHIKPEHYSELIKKEDLIYLTSDSPNILKELDESKAYVIGGLVDHNHHKGLTYKQASDYGINHAQLPLGNFVKMNSRKVLAVNHVFEIILEYLETRDWQEAFFTILPQRKGAVPTDKACESASHDNQSVRMEEGGSDSDSSEEEYSRNELDSPHEEKQDKENHTESTVNSLPH [TRMT10A]", -0.0488]
]}

###

Each record here notes measured melting temperature.
tested on: HeLa Kyoto; assay: melting temperature (median over replicates), in situ; higher = more thermally stable; conditions: cell cycle stage: G1/S

{"columns": ["sequence entry", "melting temperature [°C]"],
 "data": [
  ["MANSANTNTVPKLYRSVIEDVINDVRDIFLDDGVDEQVLMELKTLWENKLMQSRAVDGFHSEEQQLLLQVQQQHQPQQQQHHHHHHHQQAQPQQTVPQQAQTQQVLIPASQQATAPQVIVPDSKLIQHMNASNMSAAATAATLALPAGVTPVQQILTNSGQLLQVVRAANGAQYIFQPQQSVVLQQQVIPQMQPGGVQAPVIQQVLAPLPGGISPQTGVIIQPQQILFTGNKTQVIPTTVAAPTPAQAQITATGQQQPQAQPAQTQAPLVLQVDGTGDTSSEEDEDEEEDYDDDEEEDKEKDGAEDGQVEEEPLNSEDDVSDEEGQELFDTENVVVCQYDKIHRSKNKWKFHLKDGIMNLNGRDYIFSKAIGDAEW [GTF2A1]", 56.2],
  ["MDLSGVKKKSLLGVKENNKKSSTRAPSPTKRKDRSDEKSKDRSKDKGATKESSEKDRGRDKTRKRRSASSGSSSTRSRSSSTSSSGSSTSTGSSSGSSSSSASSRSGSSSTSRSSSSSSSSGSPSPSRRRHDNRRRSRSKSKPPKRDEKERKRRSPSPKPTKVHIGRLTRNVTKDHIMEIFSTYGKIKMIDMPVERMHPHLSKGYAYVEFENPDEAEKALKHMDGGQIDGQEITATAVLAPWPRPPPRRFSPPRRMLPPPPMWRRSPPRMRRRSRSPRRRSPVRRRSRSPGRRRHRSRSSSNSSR [RNPS1]", 48.9]
]}

###

Each record here notes measured melting temperature.
tested on: HeLa Kyoto; test: melting temperature (median over replicates), in situ; higher = more thermally stable; conditions: cell cycle stage: G1/S

{"columns": ["sequence entry", "melting temperature"],
 "data": [
  ["MKQLPVLEPGDKPRKATWYTLTVPGDSPCARVGHSCSYLPPVGNAKRGKVFIVGGANPNRSFSDVHTMDLGKHQWDLDTCKGLLPRYEHASFIPSCTPDRIWVFGGANQSGNRNCLQVLNPETRTWTTPEVTSPPPSPRTFHTSSAAIGNQLYVFGGGERGAQPVQDTKLHVFDANTLTWSQPETLGNPPSPRHGHVMVAAGTKLFIHGGLAGDRFYDDLHCIDISDMKWQKLNPTGAAPAGCAAHSAVAMGKHVYIFGGMTPAGALDTMYQYHTEEQHWTLLKFDTLLPPGRLDHSMCIIPWPVTCASEKEDSNSLTLNHEAEKEDSADKVMSHSGDSHEESQTATLLCLVFGGMNTEGEIYDDCIVTVVD [RABEPK]", "56.5 °C"],
  ["MSTRKRRGGAINSRQAQKRTREATSTPEISLEAEPIELVETAGDEIVDLTCESLEPVVVDLTHNDSVVIVDERRRPRRNARRLPQDHADSCVVSSDDEELSRDRDVYVTTHTPRNARDEGATGLRPSGTVSCPICMDGYSEIVQNGRLIVSTECGHVFCSQCLRDSLKNANTCPTCRKKINHKRYHPIYI [RNF4]", "53.2 °C"]
]}
